- subjectOfTest: human GLP-1 receptor (human, UniProt P43220)
- methodSummary: cell-based or functional assay
Non-standard residues stand in square brackets, D forms with d. No end group written: not given here. αMeF = C[C@](N)(Cc1ccccc1)C(=O)O; Aib = CC(C)(N)C(=O)O
// reported hGLP-1R EC50 (pM) for each item listed
Give the number; pM is assumed, so skip it.

binder | quantityMeasured | unitsLabel | valueMeasured
H[Aib]QGS[αMeF]TSDVSK[αMeF]LDSRAAKD[αMeF]VQ[Aib]IANT-NH2 (not fully specified (residue 20)) [Peptide 322] | hGLP-1R EC50 (pM) | pM | 68.3

Q) Form field: reported hGLP-1R EC50 (pM) of H[Aib]HGS[αMeF]TSDVSK[αMeF]LDSRAAKD[αMeF]VQWIANT-NH2 (not fully specified (residue 20); also: X13: αMePhe or Y (table)) [Peptide 289]
A) 118
